// molecules with IC50 on SIK2 (Homo sapiens, UniProt Q9H0K1), multi-source literature
Sequence (Q9H0K1 whole entry): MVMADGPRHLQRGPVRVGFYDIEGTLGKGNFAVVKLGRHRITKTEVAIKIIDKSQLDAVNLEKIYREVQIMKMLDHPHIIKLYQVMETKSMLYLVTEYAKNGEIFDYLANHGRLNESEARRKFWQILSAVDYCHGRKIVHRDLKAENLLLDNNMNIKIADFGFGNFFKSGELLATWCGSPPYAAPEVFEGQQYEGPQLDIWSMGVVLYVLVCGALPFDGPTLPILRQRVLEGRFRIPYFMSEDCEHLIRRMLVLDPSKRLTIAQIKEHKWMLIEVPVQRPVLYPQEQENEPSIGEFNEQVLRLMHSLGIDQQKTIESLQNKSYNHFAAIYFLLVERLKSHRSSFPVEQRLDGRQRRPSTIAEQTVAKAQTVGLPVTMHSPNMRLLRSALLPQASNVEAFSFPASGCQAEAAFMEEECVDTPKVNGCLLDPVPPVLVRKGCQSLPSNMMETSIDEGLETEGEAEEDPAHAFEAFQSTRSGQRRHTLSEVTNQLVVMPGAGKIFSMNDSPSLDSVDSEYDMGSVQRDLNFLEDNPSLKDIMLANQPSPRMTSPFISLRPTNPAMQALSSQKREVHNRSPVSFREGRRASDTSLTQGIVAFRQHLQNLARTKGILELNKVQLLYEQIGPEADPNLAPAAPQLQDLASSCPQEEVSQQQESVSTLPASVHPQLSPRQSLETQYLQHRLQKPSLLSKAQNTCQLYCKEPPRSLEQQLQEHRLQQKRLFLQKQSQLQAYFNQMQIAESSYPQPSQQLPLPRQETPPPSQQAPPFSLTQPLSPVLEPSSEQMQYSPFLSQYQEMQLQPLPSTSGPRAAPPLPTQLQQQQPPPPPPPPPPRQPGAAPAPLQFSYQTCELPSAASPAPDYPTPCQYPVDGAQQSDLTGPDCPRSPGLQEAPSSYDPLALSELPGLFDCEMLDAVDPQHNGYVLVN
measure: IC50

COc1cc(-c2cnc3cc(OCC4CCCCN4CC(F)(F)F)ccn23)cc(OC(F)F)c1C(=O)NC1CC1 (stereo not drawn) : 10 to 100 nM
COc1cc(-c2cnc3cc(OCCN4CCOC(C5CC5)C4)ccn23)cc(OC(F)F)c1C(=O)NC1CC1 (stereo not drawn) : 0.01 to 10 nM
COc1cc(-c2cnc3cc(OCC4(N)CCC4)ccn23)cc(OC(F)F)c1C(=O)NC1CC1 : 0.01 to 10 nM
COc1cc(-c2cnc3cc(OCCCN4CC(C)(O)C4)ccn23)cc(OC(F)F)c1C(=O)NC1CC1 : 0.01 to 10 nM
COc1cc(-c2c3c(C#N)cc(-c4cnn(CC(F)F)c4)cc3nn2C)cc2c1C(=O)NC[C@@H]2C (single isomer, unassigned) : 4 nM
CN1Cc2cnc(Nc3ccn(C4CCNCC4)n3)cc2N(C)c2ccccc21 : 690 nM
O=C1c2c(cc(-c3cnc4cc(OCCN5CCOCC5)ccn34)cc2OC(F)F)CCN1C1CC1 : 0.01 to 10 nM
COc1cc(-c2cnc3cc(OCCN4CCOC(C(F)(F)F)C4)ccn23)cc(OC(F)F)c1C(=O)NC1CC1 (stereo not drawn) : 0.01 to 10 nM
COc1cc(-c2c3c(C#N)cc(-c4cnn(CC(F)(F)F)c4)cc3nn2C)cc2c1C(=O)NC[C@@H]2C (single isomer, unassigned) : 1.5 nM
COc1cc(-c2cnc3cc(OCC(O)CN4CCS(=O)(=O)CC4)ccn23)cc(OC(F)F)c1C(=O)NC1CC1 (stereo not drawn) : 0.01 to 10 nM
COc1cc(-c2cnc3cc(OCCN(C)C)ccn23)cc(OC(F)F)c1C(=O)NC1CC1 : 0.01 to 10 nM
COC(=O)C1(COc2ccn3c(-c4cc(OC)c(C(=O)NC5CC5)c(OC(F)F)c4)cnc3c2)CC1 : 0.01 to 10 nM
COc1cc(-c2cnc3cc(OCCCN4CCCC4)ccn23)cc(OC(F)F)c1C(=O)NC1CC1 : 0.01 to 10 nM
COc1cc(-c2c3c(C#N)cc(-c4cnn(CC(=O)N5CC(F)(F)C5)c4)cc3nn2C)cc(OC(F)F)c1C(=O)NCC1(F)CC1 : 5 nM
COc1cc(-c2cnc3cc(OC[C@H]4CNCC[C@@H]4O)ccn23)cc(OC(F)F)c1C(=O)NC1CC1 (racemic) : 0.01 to 10 nM
